Test system: bovine nasal septum cartilage
Assay: Inhibition of cartilage degradation (GAG release) induced by IL-1α in a bovine in vitro model
Type: cell-based
Settings: Bos taurus; 1 μM; read-out: Bovine cartilage degradation induced by IL-1α, % inhibitory effect at max concentration
Measured property: inhibition at 1 µM (%)
All answers are understood in %, so give the number only.

inhibition at 1 µM for Cc1ccc(NC(=O)c2cccc(C(F)(F)F)c2)cc1CCc1cnc(Nc2cnccn2)s1 ?
35

inhibition at 1 µM for O=C(Nc1ccc(F)c(CCc2cc(Nc3cnccn3)[nH]n2)c1)c1cccc(C(F)(F)F)c1 ?
97

inhibition at 1 µM for Cc1ccc(NC(=O)c2cccc(C(F)(F)F)c2)cc1CCc1cc(Nc2cnccn2)[nH]n1 ?
100

// moving on: another record for inhibition at 1 µM
inhibition at 1 µM for Cc1nccnc1Nc1cc(CCc2cc(NC(=O)c3cccc(C(F)(F)F)c3)ccc2F)n[nH]1 ?
96
